Biological target: TGF-beta1 (hTGF-beta1) (Homo sapiens, UniProt P01137 P01137:279-390)
Sequence (P01137 279-390, one chain of several): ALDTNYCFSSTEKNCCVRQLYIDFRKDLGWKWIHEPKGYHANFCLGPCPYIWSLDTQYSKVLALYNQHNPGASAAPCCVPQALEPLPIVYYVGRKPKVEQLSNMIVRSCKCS
Test: filter; biphasic; Kd1 5.6±2.0 nM
Settings: tags: R&D Systems; biotinylated form (NFTG0) used for BIAcore; chain copies: 2
measured.quantity: Kd

Q. Provide measured Kd value, entry: 40-64 (ssRNA, 2'-F C and U) RNA: GGGAGGACGAUGCGGUUAGGGGCGUCAACACCGCUAUUACAAUCUUCGUCUUCCCAGACGACUCGCCCGA
A. 3.1 pM

The reported numbers originate from patent US6124449.
